target.under.test: human recombinant sGC enzyme (Homo sapiens (Human), UniProt Q02108+Q02153)
test.protocol: Size Exclusion Chromatography (SEC) competition binding assay using [3H] Ex-77B as the radioligand
test.settings: [3H] Ex-77B radioligand, 24 hours at 37° C.
Please go through the items and note down their Ki.
Kindly answer with a numeric value in nM, unit omitted.

Log: human recombinant sGC enzyme (Homo sapiens (Human), UniProt Q02108+Q02153), compound Cc1oc(C2(C)C(=O)Nc3nc(-c4nn(Cc5cccc(F)c5)c5cc(Cl)ccc45)nc(N)c32)nc1CC(C)(C)C(=O)O (stereo not drawn) [Example 176B] , Ki = 0.13

Log: human recombinant sGC enzyme (Homo sapiens (Human), UniProt Q02108+Q02153), compound CC1CCC(Cn2nc(-c3nc(N)c4c(n3)NC(=O)C4(C)c3nc(CC(C)(C)C(=O)O)co3)c3ccc(Cl)cc32)CC1 (single isomer, unassigned) [Example 132AA] , Ki = 0.105

Log: human recombinant sGC enzyme (Homo sapiens (Human), UniProt Q02108+Q02153), compound C[C@@]1(c2ccc(CCC(=O)O)cc2)C(=O)Nc2nc(-c3nn(Cc4ncccc4F)c4ccccc34)nc(N)c21 [Example 232B] , Ki = 0.085

Log: human recombinant sGC enzyme (Homo sapiens (Human), UniProt Q02108+Q02153), compound CC(C)(Cc1ccc(C2(C)C(=O)Nc3nc(-c4nn(Cc5ccccc5F)c5cc(Cl)ccc45)nc(N)c32)nc1)C(=O)O (stereo not drawn) [Example 131B] , Ki = 0.125

Log: human recombinant sGC enzyme (Homo sapiens (Human), UniProt Q02108+Q02153), compound Cc1cccc(Cn2nc(-c3nc(N)c4c(n3)NC(=O)C4(C)c3nc(CC(C)(C)C(=O)O)co3)c3ccccc32)c1F (stereo not drawn) [Example 233A] , Ki = 0.083

Log: human recombinant sGC enzyme (Homo sapiens (Human), UniProt Q02108+Q02153), compound C[C@@]1(c2ccc(CCC(=O)N[C@H](CO)C(=O)O)cc2)C(=O)Nc2nc(-c3nn(Cc4ccccc4F)c4ncccc34)nc(N)c21 [Example 106B] , Ki = 0.058
